Measured values drawn from the DeepSol protein solubility set for this set.

Assay: soluble on expression in E. coli; label from the status in PepcDB or PDB records
measurement type: soluble on expression in E. coli

INSERT INTO assay_data (input_sequence, measurement_type, observed_measurement) VALUES
  ('MVVEVDSMPAASSVKKPFGLRSKMGKWCCRCFPCYRESGKSNVGTSGDHDDSAMKTLRSKMGKWCHHCFPCCRGSGKSNVGASGDHDDSAMKTLRNKMGKWCCHCFPCCRGSGKSKVGAWGDYDDSAFMEPRYHVRGEDLDKLHRAAWWGKVPRKDLIVMLRDTDVNKKDKQKRTALHLASANGNSEVVKLLLDRRCQLNVLDNKKRTALIKVCSSQLYQHEAVQCQEDECALMLLEHGTDPNIPDEYGNTTLHYAIYNEDKLMAKALLLYGADIESKNKHGLTPLLLGVHEQKQQVVKFLIKKKANLNALDRYGRTALILAVCCGSASIVSLLLEQNIDVSSQDLSGQTAREYAVSSHHHVICQLLSDYKEKQMLKISSENSNPENVSRTRNK', 'soluble on expression in E. coli', 'not soluble'),
  ('MKANSDELQSFVSVVDSGSISAAAEQMGLTASAVSRTLSRLEHKLGTTLLNRTTRRMELTEEGRYFLDQARQILQQMEALEERLALRRQSPAGRLRINAASPFMLHAVVPHIGEFRRLYPDIQLELNTNDLIIDLLEQRTDVAIRIGALSDSTLHARPLGASRLHILASPEYLARHGTPASIEGLRGHTLLGFTQPEHLNRWPVVHADGDRLEIQPDISASSGETLRQLALSHQGIACLASFMTDRDIQDGRLVPLFAEQMSEYRQPIHAVYYRNSQLALRIQCFLDFIQQRLGA', 'soluble on expression in E. coli', 'not soluble');
